Parameter IC50: see the listing below.
Target: Recombinant human HSD17B13 (Homo sapiens (Human), UniProt Q7Z5P4)
Sequence (Q7Z5P4 20-300): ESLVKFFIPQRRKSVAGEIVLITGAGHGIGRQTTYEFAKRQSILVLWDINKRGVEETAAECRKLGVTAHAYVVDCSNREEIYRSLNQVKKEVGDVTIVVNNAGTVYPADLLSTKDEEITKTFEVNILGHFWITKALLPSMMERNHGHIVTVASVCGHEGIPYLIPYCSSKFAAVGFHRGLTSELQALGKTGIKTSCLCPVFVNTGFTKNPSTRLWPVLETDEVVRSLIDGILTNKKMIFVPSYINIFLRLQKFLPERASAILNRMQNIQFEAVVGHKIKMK
Assay: HSD17B13 rapid-fire mass spectrometry assay (RF/MS assay)
Details: inhibition of HSD17B13; LTB4 10 μM, NAD+ 0.5 mM, RT 3 h; IC50 ranges A-E
parameter.measured: IC50

> print(dat)
                           molecular.string                              assay.target  parameter.measured         meas.value
1  COc1cc(C(=O)O)ccc1NS(=O)(=O)c1cnc(-c2ccccc2)s1  Recombinant human HSD17B13 (Homo sapiens (Human), UniProt Q7Z5P4)                IC50      100 to 500 nM
2  COc1cc(C(=O)O)ccc1NS(=O)(=O)c1csc(-c2ccccc2)n1  Recombinant human HSD17B13 (Homo sapiens (Human), UniProt Q7Z5P4)                IC50           < 100 nM
3  O=C(O)c1ccc2nc(NS(=O)(=O)c3cnc(-c4ccc(F)cc4)s3)sc2c1  Recombinant human HSD17B13 (Homo sapiens (Human), UniProt Q7Z5P4)                IC50  1000 to 100000 nM
4  O=C(O)c1ccc2nc(NS(=O)(=O)c3cnc(-c4ccc(F)cc4)s3)oc2c1  Recombinant human HSD17B13 (Homo sapiens (Human), UniProt Q7Z5P4)                IC50  1000 to 100000 nM
